ASSAY SUMMARY: Pharmacokinetics and tissue distribution in nude mice
Type: in vivo
CONDITION PARAMETERS: female, nude (nu/nu), mouse, heart, IP 10 mg/kg
VALUE TYPE: Tmax (min)

{"SMILES NOTATION": "O=C1C(NCc2ccccc2)=CC2=NCCc3c[nH]c1c32", "RESULT UNITS": "min", "EXPERIMENTAL RESULT": 15}

----------
ASSAY SUMMARY: Pharmacokinetics and tissue distribution in CD-1 mice
Type: in vivo
CONDITION PARAMETERS: female, mouse, plasma, IV 5 mg/kg
VALUE TYPE: half-life (min)

{"COMPOUND": "O=C1C(NCc2ccccc2)=CC2=NCCc3c[nH]c1c32 [BA-TPQ]", "EXPERIMENTAL RESULT": 8.4}
